Cited source: patent US20250368745A1

Examples of binders with documented Kd follow.
Target: T1, human IL-18BP (interleukin-18 binding protein, isoform A) (human, UniProt O95998 31-194)
T1 construct: cell assays used Sino Biological 10357-H08H; PBMC assay 1 relies on endogenous IL-18BP; UniProt number is printed as 095998; also called hIL-18BP
T1 sequence: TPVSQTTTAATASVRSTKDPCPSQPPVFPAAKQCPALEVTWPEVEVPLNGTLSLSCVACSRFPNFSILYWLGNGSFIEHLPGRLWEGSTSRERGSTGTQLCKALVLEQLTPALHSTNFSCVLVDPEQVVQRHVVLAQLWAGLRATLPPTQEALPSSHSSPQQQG
Test: BLI, affinity column of Table E8

binder: SA321a (antibody, human IgG1, V domains shown, humanized; human IgG1 (suffix a), kappa) VH: QVQLQESGPGLVKPSQTLSLTCTVSGYSITQDYNAHWIRQPPGKGLEWIGYIHYSGQTLYNPSLKSRVTISRDTSKNQFSLKLSSVTAADTAVYYCARNFGSIYVNYFDYWGQGTLVTVSS VL: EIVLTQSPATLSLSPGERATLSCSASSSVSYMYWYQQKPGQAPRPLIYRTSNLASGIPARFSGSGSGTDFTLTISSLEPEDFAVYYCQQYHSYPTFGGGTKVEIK
Kd / nM: 0.136
--
binder: SA310a (antibody, human IgG1, V domains shown, humanized; human IgG1 (suffix a), kappa) VH: QVQLQESGPGLVKPSQTLSLTCTVSGYSITSDYNAHWIRQPPGKGLEWIGYIHYSGSTMYNPSLKSRVTISRDTSKNQFSLKLSSVTAADTAVYYCARNYGSIYVNYFDYWGQGTLVTVSS VL: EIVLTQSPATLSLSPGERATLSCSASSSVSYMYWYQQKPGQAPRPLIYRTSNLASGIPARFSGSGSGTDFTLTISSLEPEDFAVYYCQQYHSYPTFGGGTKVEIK
Kd / nM: 0.175
--
binder: SA312a (antibody, human IgG1, V domains shown, humanized; human IgG1 (suffix a), kappa) VH: QVQLQESGPGLVKPSQTLSLTCTVSGYSITQDYNAHWIRQPPGKGLEWIGYIHYSGSTMYNPSLKSRVTISRDTSKNQFSLKLSSVTAADTAVYYCARNYGSIYVNYFDYWGQGTLVTVSS VL: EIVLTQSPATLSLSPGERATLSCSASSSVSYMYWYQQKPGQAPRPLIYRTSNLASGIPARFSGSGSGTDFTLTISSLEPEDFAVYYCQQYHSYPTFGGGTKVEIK
Kd / nM: 0.117
